Measured GI50 of individual entries
# Tested on: SF-268
# experimentDescription: NCI tumour cell line growth inhibition, 48 h
Activity calls are given as the source filed them. No stated cut-off is given here; in the data, active = GI50 up to about 1.1 µM and inactive = higher.

O=C(O)c1cc2ccc3ccccc3c2oc1=O | > 100 µM (inactive)

// sample Cc1cccc2c1Oc1ccccc1C2NC(=O)c1ccc([N+](=O)[O-])cc1 (stereo not given) , its GI50 was 95.3 µM (inactive)

// sample CC1=NN(c2nc(N)nc(C(C#N)C(=O)c3cc4c(cc3Cl)Sc3nccn3S4(=O)=O)n2)C(C)(C)C1 (stereo not given) , its GI50 was 13.6 µM (inactive)

---

# System: NCI/ADR-RES
# experimentDescription: NCI tumour cell line growth inhibition, 48 h
Active and inactive are the calls of the source. No stated cut-off is given here; in the data, active = GI50 up to about 1.1 µM and inactive = higher. *1 amine or outer side, *2 acyl side, *3 side chain or, on linkers, in order; H or OH if unused. Where a SMILES comes first, the peptide text is derived from it. Bridges are numbered along the chain shown (N, C = ends). Roman numbers before positions name the chains, in order. [ ]: non-standard residue; d: D form. Actinocin(1to9) = Cc1c2oc3c(C)ccc(C(=O)[*:2])c3nc-2c(C(=O)[*:1])c(N)c1=O; NMeV = CN[CH](C(=O)O)C(C)C; Sar = CNCC(=O)O
Please answer using one outcome listed in active, inactive

CCC(C)C1NC(=O)C(NC(=O)c2c3nc4c(C(=O)NC5C(=O)NC(C(C)C)C(=O)N6CCCC6C(=O)N(C)CC(=O)N(C)C(C(C)C)C(=O)OC5C)ccc(C)c4oc-3c(C)c(=O)c2N)C(C)OC(=O)C(C(C)C)N(C)C(=O)CN(C)C(=O)C2CCCN2C1=O (stereo unspecified) (I: TIP[Sar][NMeV] / II: TVP[Sar][NMeV]; ester I:1-I:C, II:1-II:C; linker I:N-II:N via Actinocin(1to9); configuration not given here) | active
COC(=O)C(Cc1c[nH]c2ccccc12)NP(=O)(O)OCC1OC(n2cc(Br)c(=O)[nH]c2=O)CC1O (stereo unspecified) | inactive
CCOC(=O)[C@@H]1ON2O[C@H](OC3CCCCC3c3ccccc3)C[C@H]3OC(=O)[C@@H]1C32 (stereo partly specified) | inactive

-- ask Write down the call the test reported for this molecule. Item: Cc1cn(CCCCCCOC(=O)NC(CCCNC(=N)N)C(=O)O)c(=O)[nH]c1=O (stereo unspecified)
-- reply inactive

-- ask Write down the call the test reported for this molecule. Item: CCC(c1c[nH]c2ccc(Br)cc12)c1c[nH]c2ccc(Br)cc12
-- reply inactive

-- ask Write down the call the test reported for this molecule. Item: Cc1cccc(-c2cc(O)c3cc(C)cnc3n2)c1
-- reply active

---

# Tested on: NCI-H460
# experimentDescription: NCI tumour cell line growth inhibition, 48 h
Calls of active or inactive are those of the source. No stated cut-off is given here; in the data, active = GI50 up to about 1.1 µM and inactive = higher.
Measured GI50 of individual entries

These solved cases illustrate the format of a correct answer.
COC(=O)C1CC2CC(=NNC(N)=O)CC2C1 (centres undefined) | > 100 µM (inactive)
CC1(C)C[C@H]2C3=CC[C@@H]4[C@@]5(C)CC[C@H](O)C(C)(C)[C@@H]5CC[C@@]4(C)[C@]3(C)C[C@@H](O)[C@@]23C[C@@H]1OC3=O | 70.3 µM (inactive)
CN1CCN(CN2C(=O)C3C4C=CC(C3C2=O)C2C3C(=O)N(CN5CCN(C)CC5)C(=O)C3C42)CC1 (centres undefined) | 13.5 µM (inactive)

// sample COc1cc2c(cc1OCCCCN1C(=O)c3cccc4cccc(c34)C1=O)N=C[C@@H]1CCCN1C2=O , its GI50 was 3.96 µM (inactive)

// sample [O-][S+](c1ccccc1)C1CC2CC3(CCC21O)OCCO3 (centres undefined) , its GI50 was > 100 µM (inactive)

// sample Cc1cc(S(=O)(=O)Nc2nc3ccccc3nc2-c2ccc(Cl)cc2)c(S)cc1Cl , its GI50 was 13.6 µM (inactive)

// sample O=C(NN=C1CCCCC1)NN=C1CCCCC1 , its GI50 was > 100 µM (inactive)

// sample O=C1/C(=C2/CCCN2)C(c2ccc[nH]2)=NN1c1ccccc1 , its GI50 was > 100 µM (inactive)

// sample c1cncc(-c2ncc3cccnc3n2)c1 , its GI50 was > 100 µM (inactive)

// sample C#CCOC(=O)C(N)CSSCC(N)C(=O)O (centres undefined) , its GI50 was > 100 µM (inactive)

// sample CC1(C)CC(=O)c2c(nc3c(ccc4ccccc43)c2-c2ccc(NC(=O)CCCCCCCCC(=O)Nc3ccc(-c4c5c(nc6c4ccc4ccccc46)CC(C)(C)CC5=O)cc3)cc2)C1 , its GI50 was > 100 µM (inactive)

// sample NS(=O)(=O)c1ccc(/C=C/c2ccc(O)c(O)c2)cc1 , its GI50 was 27.3 µM (inactive)
